meta.source: BindingDB's records for doi:10.1021/jm990236h

# procedureDetails: Antiviral activity was evaluated by Reverse transcriptase activity in cells acutely infected with HIV-1
Reported values of pIC50 for individual entries
Scale explanation: pIC50 corresponds to minus log10 of a concentration expressed in moles per litre.

Solved cases below.
CCCCCCCCC(=O)NC1=NN(C)c2ncnc3c2c1cn3C1O[C@H](CO)[C@@H](O)[C@H]1O (some centres undefined) | 6.10
CCCCCCCCCCCC(=O)NC1=NN(C)c2ncnc3c2c1cn3C1O[C@H](CO)[C@@H](O)[C@H]1O (some centres undefined) | 6.00
CCCCCCCC(=O)NC1=NN(C)c2ncnc3c2c1cn3C1O[C@H](CO)[C@@H](O)[C@H]1O (some centres undefined) | 7.00

**Q:** Which pIC50 value is on record for CCCCCCCCCC(=O)NC1=NN(C)c2ncnc3c2c1cn3C1O[C@H](CO)[C@@H](O)[C@H]1O (some centres undefined) ?
**A:** 6.60
